Kindly state fluorescence ratio for each of the entries shown.
Run description: signal quenchers or enhancers, Cy5 substrate/SSB – biochemical, NIH Clinical Collection, E. coli SSB, artefact control for HCV NS3 helicase inhibitor project (AID 743268)
Assay context: Cy5-oligo bound E. coli SSB, fluorescence interference
Form: value (number only, do not type unit).

Just so you know, measured fluorescence ratio for CN1CCN(C2=Nc3cc(F)ccc3Cc3ccccc32)CC1 came out at 0.91

Just so you know, measured fluorescence ratio for CC(C)NCC(O)COc1ccc(CCOCC2CC2)cc1 (configuration not stated) came out at 1.03

Just so you know, measured fluorescence ratio for CC(=O)O[C@H]1C[C@@H]2CC[C@@H]3[C@H](CC[C@@]4(C)[C@H]3C[C@H]([N+]3(C)CCCCC3)[C@@H]4OC(C)=O)[C@@]2(C)C[C@@H]1N1CCCCC1 came out at 1

Just so you know, measured fluorescence ratio for C[C@@H]1C[C@H]2[C@@H]3C[C@H](F)C4=CC(=O)C(Cl)=C[C@]4(C)[C@@]3(F)[C@@H](O)C[C@]2(C)[C@@]1(O)C(=O)CO came out at 1

Just so you know, measured fluorescence ratio for O=C1c2cccc3c2[C@H](CCC3)CN1[C@@H]1CN2CCC1CC2 came out at 0.94

Just so you know, measured fluorescence ratio for CNCC(O)c1ccc(O)c(O)c1 (configuration not stated) came out at 1.02

Just so you know, measured fluorescence ratio for COC(=O)C1=C(C)NC(C)=C(C(=O)O[C@@H]2CCCN(Cc3ccccc3)C2)[C@@H]1c1cccc([N+](=O)[O-])c1 came out at 0.96

Just so you know, measured fluorescence ratio for COc1ccc(CN2CCN(C(c3ccc(F)cc3)c3ccc(F)cc3)CC2)c(OC)c1OC came out at 1

Just so you know, measured fluorescence ratio for O=C(NCCO[N+](=O)[O-])c1cccnc1 came out at 1.04

Just so you know, measured fluorescence ratio for CC(C)NCC(O)COc1ccc(COCCOC(C)C)cc1 (configuration not stated) came out at 1.04

Just so you know, measured fluorescence ratio for CN1CCC(=C2c3ccccc3C=Cc3ccccc32)CC1 came out at 0.97

Just so you know, measured fluorescence ratio for Brc1c(NC2=NCCN2)ccc2nccnc12 came out at 1.04

Just so you know, measured fluorescence ratio for C[C@H](NC(CCc1ccccc1)C(=O)O)C(=O)N1CCC[C@H]1C(=O)O (some centres not stated) came out at 1.07

Just so you know, measured fluorescence ratio for NS(=O)(=O)c1cc(C(=O)O)c(NCc2ccco2)cc1Cl came out at 0.95

Just so you know, measured fluorescence ratio for COc1cccc2c1C(=O)c1c(O)c3c(c(O)c1C2=O)C[C@@](O)(C(=O)CO)C[C@@H]3O[C@H]1C[C@H](N)[C@H](O)[C@H](C)O1 came out at 0.07

Just so you know, measured fluorescence ratio for CN(C)CCCSc1ccccc1NC(=O)/C=C/c1ccccc1 came out at 0.99

Just so you know, measured fluorescence ratio for CN(Cc1cnc2nc(N)nc(N)c2n1)c1ccc(C(=O)N[C@@H](CCC(=O)O)C(=O)O)cc1 came out at 0.92

Just so you know, measured fluorescence ratio for COCc1c(C(C)C)nc(C(C)C)c(/C=C/[C@@H](O)C[C@@H](O)CC(=O)O)c1-c1ccc(F)cc1 came out at 1.03

Just so you know, measured fluorescence ratio for OCCOCCN1CCN(C2=Nc3ccccc3Sc3ccccc32)CC1 came out at 1.02

Just so you know, measured fluorescence ratio for O=c1[nH]cnc2c1ncn2[C@H]1CC[C@@H](CO)O1 came out at 1.06

Just so you know, measured fluorescence ratio for Nc1nc2c(ncn2COC(CO)CO)c(=O)[nH]1 came out at 1.03

Just so you know, measured fluorescence ratio for NC(=O)OCC(COC(N)=O)c1ccccc1 came out at 1.05

Just so you know, measured fluorescence ratio for COc1ccccc1N1CCN(CC(O)COc2cccc3ccccc23)CC1 (configuration not stated) came out at 0.97

Just so you know, measured fluorescence ratio for C#C[C@]1(O)CC[C@H]2[C@@H]3[C@H](C)CC4=C(CCC(=O)C4)[C@H]3CC[C@@]21C came out at 0.99

Just so you know, measured fluorescence ratio for COc1cc(C(=O)NC2CCCNC2)cc(OC)c1OC (configuration not stated) came out at 1

Just so you know, measured fluorescence ratio for O=C1CC2(CCCC2)CC(=O)N1CCNCC1COc2ccccc2O1 (configuration not stated) came out at 0.98

Just so you know, measured fluorescence ratio for CC(C)(C#N)c1cc(Cn2cncn2)cc(C(C)(C)C#N)c1 came out at 0.93

Just so you know, measured fluorescence ratio for CCOC(=O)OC(C)OC1=C(C(=O)Nc2ccccn2)N(C)S(=O)(=O)c2ccccc21 (configuration not stated) came out at 0.97

Just so you know, measured fluorescence ratio for C[C@@H]1C[C@H]2[C@@H]3CCC4=CC(=O)C=C[C@]4(C)[C@@]3(F)[C@@H](O)C[C@]2(C)[C@H]1C(=O)CO came out at 0.96

Just so you know, measured fluorescence ratio for CCN(CC)CC1CCCCN1CC(=O)N1c2ccccc2C(=O)Nc2cccnc21 (configuration not stated) came out at 1.04

Just so you know, measured fluorescence ratio for COC(=O)C1=C(C)NC(C)=C(C(=O)OCC(C)C)C1c1ccccc1[N+](=O)[O-] (configuration not stated) came out at 0.95

Just so you know, measured fluorescence ratio for O=C1N(c2ccccc2)c2ccccc2C1(Cc1ccncc1)Cc1ccncc1 came out at 0.98

Just so you know, measured fluorescence ratio for CN(C)CC[C@@H](c1ccc(Br)cc1)c1ccccn1 came out at 1.07

Just so you know, measured fluorescence ratio for CCCc1c(OCCCCc2nn[nH]n2)ccc(C(C)=O)c1O came out at 1.03

Just so you know, measured fluorescence ratio for CCN1CCC[C@H]1CNC(=O)c1c(O)c(Cl)cc(Cl)c1OC came out at 0.94

Just so you know, measured fluorescence ratio for COC1=C(OC)C(=O)C(CCCCCCCCCCO)=C(C)C1=O came out at 0.94

Just so you know, measured fluorescence ratio for O=C1CCc2ccc(OCCCCN3CCN(c4cccc(Cl)c4Cl)CC3)cc2N1 came out at 1

Just so you know, measured fluorescence ratio for COc1cc(-c2ccc(=O)[nH]n2)ccc1OC(F)F came out at 0.99

Just so you know, measured fluorescence ratio for CNS(=O)(=O)Cc1ccc2[nH]cc(CCN(C)C)c2c1 came out at 1.05

Just so you know, measured fluorescence ratio for CCCN[C@H]1CCc2nc(N)sc2C1 came out at 1.02

Just so you know, measured fluorescence ratio for CC(=O)NS(=O)(=O)c1ccc(N)cc1 came out at 1.03

Just so you know, measured fluorescence ratio for CCC1=C(C)CN(C(=O)NCCc2ccc(S(=O)(=O)NC(=O)NC3CCC(C)CC3)cc2)C1=O (configuration not stated) came out at 0.97
